Each entry below carries its reported normalized growth.
protocolDescription: chemical genetic growth profiling, strain panel (AID 1159580);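 further: tested at 20 µM; growth read once vehicle control cultures reached saturation at 30 °C; 1 = growth at the plate median or of vehicle wells; lower values mean less growth of the strain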
details: S. cerevisiae deletion strains, growth OD, locus YHR027C, strain rpn1, active compounds read low
The campaign covered roughly 5,500 compounds. About 2,000 (36%) were called active. Not shown: some 18% with an inconclusive outcome. This is one part of the list.
measuredProperty: normalized growth

compound | resultNumber
CC(=O)OC(C)C[N+](C)(C)C (stereo not drawn) | 1
CCCCC1C(=O)N(c2ccccc2)N(c2ccc(O)cc2)C1=O (stereo not drawn) | 0.999
CCCCOc1cc(C(=O)NCCN(CC)CC)c2ccccc2n1 | 0.973
C[N+](C)(C)CC(O)CC(=O)O (stereo not drawn) | 0.984
COc1ccccc1/C=C\C(=O)O | 1
CCCC(C)(COC(N)=O)COC(=O)NC(C)C (stereo not drawn) | 1.01
CCC(=O)c1c(O)cc(O)cc1O | 1.01
Cc1cc(OC(=O)c2c(C)cc(O)cc2O)cc(O)c1C(=O)O | 1.01
COC(=O)c1c(C)cc(O)cc1O | 1.02
CN[C@@H]1[C@@H](O)C(OC2[C@@H](N)C[C@@H](N)[C@H](O[C@H]3O[C@H](C(C)O)[C@@H](O)[C@H](O)[C@H]3N)[C@H]2O)OC[C@]1(C)O (stereo partly drawn) | 0.977
NS(=O)(=O)c1cc(C2(O)NC(=O)c3ccccc32)ccc1Cl (stereo not drawn) | 0.99
COC1=CC(=O)C(C(=O)c2ccccc2)=CC1=O | 0.966
CCOC(=O)c1c(C)cc(OC)cc1O | 0.988
